Source of measurements: patent US20110224226A1

Test Description: in-vitro plasma protein binding, rabbits
Format: in vitro ADME
Condition Summary: rabbit, 0.05 to 50 μg/mL
Reported Property: fraction unbound

Recorded result, "O=C(Nc1nc(-c2cc(Cl)cs2)c(N2CCN(C3CCCCC3)CC2)s1)c1cnc(N2CCC(C(=O)O)CC2)c(Cl)c1" , fraction unbound: 0.08 to 0.117

----------
Test Description: Example 1 single dose study: pharmacokinetics
Assay type: in vivo, human
Condition Summary: both sexes, plasma, oral; single 3 mg daily dose, human; read-out: mean time to maximum plasma concentration (Tmax)
Reported Property: Tmax

Recorded result, O=C(Nc1nc(-c2cc(Cl)cs2)c(N2CCN(C3CCCCC3)CC2)s1)c1cnc(N2CCC(C(=O)O)CC2)c(Cl)c1 [Formula I] , Tmax: ~5.5 h

----------
Test Description: Example 1 single dose study: pharmacokinetics
Type: in vivo, human
Condition Summary: both sexes, human, serum; single oral dose 10 mg, healthy volunteers, final mean
Reported Property: AUC(0-inf) (µg·h/mL)
Output spec: scalar in µg·h/mL, unitless text.

Recorded result, "O=C(Nc1nc(-c2cc(Cl)cs2)c(N2CCN(C3CCCCC3)CC2)s1)c1cnc(N2CCC(C(=O)O)CC2)c(Cl)c1" , AUC(0-inf): 2.38

----------
Test Description: Example 1 single dose study: pharmacokinetics
Format: in vivo, human
Condition Summary: both sexes, human, plasma, po, 1 mg, single oral dose 1 mg, healthy volunteers, final mean; read-out: Cmax
Reported Property: Cmax (ng/mL)
Output spec: scalar in ng/mL, unitless text.

Recorded result, O=C(Nc1nc(-c2cc(Cl)cs2)c(N2CCN(C3CCCCC3)CC2)s1)c1cnc(N2CCC(C(=O)O)CC2)c(Cl)c1 [Formula I] , Cmax: 5.67

----------
Test Description: Example 1 single dose study: pharmacokinetics
Type: in vivo, human
Condition Summary: both sexes, plasma, oral; single 3 mg daily dose, human; read-out: mean AUC0-last
Reported Property: AUC(0-t)

Recorded result, "O=C(Nc1nc(-c2cc(Cl)cs2)c(N2CCN(C3CCCCC3)CC2)s1)c1cnc(N2CCC(C(=O)O)CC2)c(Cl)c1" , AUC(0-t): 235 to 400 ng·h/mL
